# Tested on: Prunus dulcis
# assay_text: Inhibition of almond alpha-mannosidase assessed as p-nitrophenylglycoside substrate hydrolysis at 1 mM
The source made the active and inactive calls. The rule behind the calls is not given here.
readout_kind: inhibition

Take a look at these entries with their results.
molecule=O[C@H]1[C@@H](O)CN[C@@H]1CNCc1ccco1 readout_kind=inhibition result=29%
molecule=CC(=O)N(CNC[C@H]1NC[C@H](O)[C@@H]1O)Cc1ccccc1 readout_kind=inhibition result=inactive
molecule=O[C@H]1[C@@H](O)CN[C@@H]1CNCc1cccs1 readout_kind=inhibition result=68%
molecule=O[C@H]1[C@@H](O)CN[C@@H]1CNCC1CCN(Cc2ccccc2)CC1 readout_kind=inhibition result=59%
molecule=O[C@H]1[C@@H](O)CN[C@@H]1CN[C@@H](COCc1ccccc1)c1ccccc1 readout_kind=inhibition result=75%
molecule=O[C@H]1[C@@H](O)CN[C@@H]1CCNc1ccccc1 readout_kind=inhibition result=inactive
molecule="OCC(O)[C@H]1NC[C@H](O)[C@@H]1O (some centres not stated)" readout_kind=inhibition result=inactive
molecule=O[C@@H]1CNC[C@@H]1O readout_kind=inhibition result=40%
molecule=O[C@H]1[C@@H](O)CN[C@@H]1CNC1CCCC1 readout_kind=inhibition result=53%
molecule="OC[C@H]1NC[C@H](O)[C@@H]1O [IMINORIBITOL]" readout_kind=inhibition result=37%

*Q* Would you mind telling me what inhibition value was observed for OC[C@H](NC[C@H]1NC[C@H](O)[C@@H]1O)c1ccccc1 ?
*A* 93%

*Q* Lookup C[C@@H](O)NC[C@H]1NC[C@H](O)[C@@H]1O
*A* 39%
